- Protocol Description: qHTS for inhibitors of binding or entry into cells for Marburg Virus
- Condition Parameters: Marburg virus pseudotyped entry inhibition, cell reporter; series mostly up to 37.8 µM
The whole screen tested about 300,000 compounds, of which about 5,400 (1.8%) were called active. Not shown: some 28% with an inconclusive outcome. The call rests on the fitted dose curve; tested in HEK293 cells. Many of the other results were omitted from the sample, so actives are more common in it than they were.
Respond with a class label; see y = active, n = inactive

Incoming: Write down the call the test reported for this compound. Item: c1ccc2cc(OCCN3CCCC3)ccc2c1
Outgoing: n

Incoming: Field: outcome | Entry: CCS(=O)(=O)Nc1ccc(C2=NN(C(C)=O)C(c3cccs3)C2)cc1 (configuration not stated)
Outgoing: n

Incoming: Could you check what this test reported for COc1ccc(C(=O)NC2CC2)cc1OC1CCN(Cc2cnn(C)c2)CC1 ?
Outgoing: n

Incoming: Fill in: this test's call for O=[N+]([O-])c1ccccc1OCCCCN1CCCCC1 is ___
Outgoing: n

Incoming: How was OC(CNC1CCCCC1)c1ccccc1 (configuration not stated) classified in this test?
Outgoing: n

Incoming: Tell me the recorded outcome of this test for CCCN1CCN(C(=O)CCCNC(=O)c2ccc(Cl)cc2)CC1 .
Outgoing: n

Incoming: What classification did N#Cc1ccc(C(c2nnnn2CCc2ccccc2)N2CCCCCC2)cc1 (configuration not stated) end up with in this test?
Outgoing: y

Incoming: Field: outcome | Entry: Cc1cc(C)c(S(=O)(=O)N2CCCC2CNC(=O)c2ccc3c(c2)OCO3)c(C)c1 (configuration not stated)
Outgoing: n

Incoming: Given COc1ccc(-c2nn(-c3ccccc3)cc2CN2CCCO2)c(F)c1 , state the outcome it received in this test.
Outgoing: n

Incoming: For CC(=O)c1c(OCC(=O)N(C)C2CCCCC2)ccc2c(C)cc(=O)oc12 , what call appears in the results of this test?
Outgoing: n

Incoming: Please let me know the test result on file for CCCOC(=O)CSC1=C(C#N)[C@H](c2ccccc2OCC)[C@H](C#N)C(=O)N1 .
Outgoing: n

Incoming: Hello, I am checking results. What call was entered for CC(C)C(c1nnnn1CCc1ccccc1)N1CCN(C(=O)c2ccco2)CC1 (configuration not stated) ?
Outgoing: n

Incoming: Test call for this compound, please: CNC(=O)C1CC(=O)N(c2ccc(OCC(=O)Nc3ccccc3C)cc2)C1 (configuration not stated)
Outgoing: n

Incoming: Each compound tested received a call. Report the one for COc1ccccc1NC(=O)C(C)OC(=O)c1ccc(-n2cnnn2)cc1 (configuration not stated) .
Outgoing: n

Incoming: Lab log entry: CCS(=O)(=O)Nc1ccc(C2=NN(S(=O)(=O)c3ccc(F)cc3)C(c3ccco3)C2)cc1 (configuration not stated) — outcome as called in the assay?
Outgoing: y

Incoming: Hey, what did the test say about CC1=C(C(=O)NC2CC(C)(C)Cc3c2cnn3-c2ccc(C)cc2)OCCO1 (configuration not stated) ?
Outgoing: n

Incoming: # lookup: test call for CC(=O)c1ccc(NC(=O)C(C)OC(=O)c2ccc(NS(=O)(=O)c3ccc4[nH]c(=O)[nH]c4c3)cc2)cc1 (configuration not stated)
Outgoing: n

Incoming: Short answer needed: outcome of this test for CC1CN(CCCOc2ccccc2-c2ccccc2)CC(C)O1 (configuration not stated) ?
Outgoing: n

Incoming: Please let me know the test result on file for CC12CCCCC1=CC(=O)CC2 (configuration not stated) .
Outgoing: n

Incoming: # lookup: test call for CS(=O)(=O)Nc1ccc(C2=NN(S(C)(=O)=O)C(c3cccs3)C2)cc1 (configuration not stated)
Outgoing: n

Incoming: For CC(=O)OC(C(=O)NC1CCCCC1)c1ccccc1 (configuration not stated) , which call appears in the assay record?
Outgoing: n

Incoming: Which outcome was assigned to CC1CCN(C(=O)c2ccc3c(=O)n4c(nc3c2)CCCCC4)CC1 in this test?
Outgoing: n
